Consider the following molecules; for each one, report its inhibition at 10 µM.
MEASURED ON: panel of 203 kinases (Homo sapiens, UniProt P14616)
Construct: purchased DiscoverX (KINOMEscan)
Sequence (P14616 27-1297): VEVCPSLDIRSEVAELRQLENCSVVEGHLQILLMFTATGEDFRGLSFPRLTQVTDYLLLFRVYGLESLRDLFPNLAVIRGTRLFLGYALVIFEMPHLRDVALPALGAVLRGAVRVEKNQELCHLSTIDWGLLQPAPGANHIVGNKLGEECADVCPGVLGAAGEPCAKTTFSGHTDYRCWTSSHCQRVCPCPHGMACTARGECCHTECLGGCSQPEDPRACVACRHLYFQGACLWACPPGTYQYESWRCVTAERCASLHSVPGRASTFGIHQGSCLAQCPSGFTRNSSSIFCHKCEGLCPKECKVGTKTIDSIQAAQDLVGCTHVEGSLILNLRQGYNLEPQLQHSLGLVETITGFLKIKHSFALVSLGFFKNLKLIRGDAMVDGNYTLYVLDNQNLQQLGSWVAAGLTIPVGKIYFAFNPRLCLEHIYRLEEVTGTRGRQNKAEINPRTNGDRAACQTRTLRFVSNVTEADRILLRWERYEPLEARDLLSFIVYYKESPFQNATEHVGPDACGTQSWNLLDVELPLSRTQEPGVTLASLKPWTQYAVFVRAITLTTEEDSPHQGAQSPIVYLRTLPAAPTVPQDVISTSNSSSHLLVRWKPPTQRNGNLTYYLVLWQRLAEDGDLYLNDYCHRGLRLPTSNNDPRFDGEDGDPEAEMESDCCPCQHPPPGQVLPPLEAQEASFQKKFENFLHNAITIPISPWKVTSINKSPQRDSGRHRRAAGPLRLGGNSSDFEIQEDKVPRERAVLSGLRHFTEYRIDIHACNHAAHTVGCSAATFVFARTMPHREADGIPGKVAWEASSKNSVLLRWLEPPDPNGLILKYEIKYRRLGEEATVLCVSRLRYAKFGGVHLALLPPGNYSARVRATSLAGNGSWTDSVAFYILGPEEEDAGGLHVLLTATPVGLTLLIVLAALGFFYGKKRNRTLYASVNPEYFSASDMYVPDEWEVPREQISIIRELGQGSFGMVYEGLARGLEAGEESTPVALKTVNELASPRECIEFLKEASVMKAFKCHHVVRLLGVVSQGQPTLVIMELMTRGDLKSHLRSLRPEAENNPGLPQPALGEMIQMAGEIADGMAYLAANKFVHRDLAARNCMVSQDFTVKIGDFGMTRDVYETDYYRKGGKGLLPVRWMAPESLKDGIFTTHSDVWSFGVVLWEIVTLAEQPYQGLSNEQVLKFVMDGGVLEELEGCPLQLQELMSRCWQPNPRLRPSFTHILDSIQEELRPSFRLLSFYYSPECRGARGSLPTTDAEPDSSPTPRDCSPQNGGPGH
TEST PROTOCOL: KINOMEscan competitive binding, whole panel
RUN CONDITIONS: 10 µM, n=1; kinase INSRR; read-out: Percent inhibition INSRR
Answers are plain numbers, in %.

Use these answered entries as a reference point.
1) COc1ccc(Nc2nccc(-c3cnn4ncccc34)n2)cc1	87.2
2) Clc1ccc(Nc2ncc(-c3ccccc3)s2)cc1	0
3) c1ccc(COc2cccc(-c3ccnc4[nH]ccc34)c2)cc1	0
4) Nc1ncc2c(-c3ccncc3)c[nH]c2n1	0
5) CN1CCN(c2ccc(Nc3nccc(-c4cnn5ncccc45)n3)cc2C#N)CC1	99.2
6) Cc1ccc(O)cc1Nc1ccnc(Nc2cccc(C(N)=O)c2)n1	0

Record inhibition at 10 µM for all entries; do not skip any.
1. Cc1ccc(O)cc1N(C)c1ccnc(Nc2cccc(S(N)(=O)=O)c2)n1
2. Fc1cccc(COc2ccc(Nc3ncnc4c3CN(CCN3CCOCC3)CC4)cc2Cl)c1

1: 0; 2: 0

Dear colleague, could you send me inhibition at 10 µM for each of the items below? Thanks.
1. COc1cc(Nc2nccc(-c3sc(N)nc3-c3cccc(NC(=O)c4c(F)cccc4F)c3)n2)cc(OC)c1OC
2. C[C@@H](Oc1cc(-c2cnc3ccccn23)sc1C(N)=O)c1ccccc1Cl

1: 97.8; 2: 0

----------
MEASURED ON: panel of 203 kinases (Homo sapiens, UniProt P29320)
Construct: purchased DiscoverX (KINOMEscan)
Sequence (P29320 21-983): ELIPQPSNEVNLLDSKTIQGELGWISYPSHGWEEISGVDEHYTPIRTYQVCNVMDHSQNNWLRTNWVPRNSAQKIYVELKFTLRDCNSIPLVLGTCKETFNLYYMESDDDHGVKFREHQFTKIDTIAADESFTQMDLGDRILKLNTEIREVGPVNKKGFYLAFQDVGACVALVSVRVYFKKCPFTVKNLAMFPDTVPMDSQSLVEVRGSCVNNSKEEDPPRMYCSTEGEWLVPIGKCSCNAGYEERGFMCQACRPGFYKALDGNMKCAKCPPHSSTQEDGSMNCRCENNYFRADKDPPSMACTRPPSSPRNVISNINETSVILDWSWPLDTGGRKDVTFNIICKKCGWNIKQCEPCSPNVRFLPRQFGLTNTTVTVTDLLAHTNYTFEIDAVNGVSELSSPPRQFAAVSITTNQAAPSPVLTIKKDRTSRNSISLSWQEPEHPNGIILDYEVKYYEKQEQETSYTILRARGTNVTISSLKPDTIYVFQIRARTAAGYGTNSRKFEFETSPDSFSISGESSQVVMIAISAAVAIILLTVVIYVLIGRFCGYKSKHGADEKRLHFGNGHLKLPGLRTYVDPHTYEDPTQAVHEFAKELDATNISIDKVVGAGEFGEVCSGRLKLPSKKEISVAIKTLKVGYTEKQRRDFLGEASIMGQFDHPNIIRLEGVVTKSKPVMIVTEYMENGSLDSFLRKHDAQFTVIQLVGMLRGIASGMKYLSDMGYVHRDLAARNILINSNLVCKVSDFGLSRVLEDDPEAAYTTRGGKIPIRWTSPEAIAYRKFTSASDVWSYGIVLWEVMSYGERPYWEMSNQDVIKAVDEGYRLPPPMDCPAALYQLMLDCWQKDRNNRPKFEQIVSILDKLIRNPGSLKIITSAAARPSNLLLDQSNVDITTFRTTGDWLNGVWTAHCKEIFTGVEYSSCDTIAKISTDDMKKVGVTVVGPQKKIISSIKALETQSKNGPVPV
TEST PROTOCOL: KINOMEscan competitive binding, whole panel
RUN CONDITIONS: 10 µM, n=1; kinase EPHA3; read-out: Percent inhibition EPHA3
RECORDED ENDPOINT: inhibition at 10 µM

Use these answered entries as a reference point.
1. Cc1ccc(O)cc1Nc1ccnc(Nc2cccc(C(N)=O)c2)n1 [Compound 3]	100%
2. Nc1ncc2c(-c3ccncc3)c[nH]c2n1 [Compound 11]	94.6%

Parameter requested: inhibition at 10 µM. Apply to each item below.
1. COc1ccc(Nc2nccc(-c3cnn4ncccc34)n2)cc1 [Compound 2]
2. Clc1ccc(Nc2ncc(-c3ccccc3)s2)cc1 [Compound 10]
3. COc1cc(Nc2nccc(-c3sc(N)nc3-c3cccc(NC(=O)c4c(F)cccc4F)c3)n2)cc(OC)c1OC [Compound 7]
4. C[C@@H](Oc1cc(-c2cnc3ccccn23)sc1C(N)=O)c1ccccc1Cl [Compound 8]
5. Cc1ccc(O)cc1N(C)c1ccnc(Nc2cccc(S(N)(=O)=O)c2)n1 [Compound 4]
6. Fc1cccc(COc2ccc(Nc3ncnc4c3CN(CCN3CCOCC3)CC4)cc2Cl)c1 [Compound 6]
7. CN1CCN(c2ccc(Nc3nccc(-c4cnn5ncccc45)n3)cc2C#N)CC1 [Compound 1]
8. c1ccc(COc2cccc(-c3ccnc4[nH]ccc34)c2)cc1 [Compound 9]

85%
0%
99.7%
0%
100%
0%
98%
0%
